Counter-ions that a name gives are not always drawn.
The following molecules are shown together with reported melting point values.

INSERT INTO results (molecule, assay_readout, result) VALUES
  ('COc1cc(C(=O)N(C)[C@@H]2CCN(C3CCC3)C2)ccc1-n1c(C)nc2ccccc21 (as salt: hydrochloride) [Example 110]', 'melting point', '168 to 170 °C');

Lab note: CC(C)N1CCC(N(C)C(=O)c2ccc(-n3cccn3)cc2)CC1 (as salt: hydrochloride) [Example 85] gave melting point of 285 to 286 °C

Lab note: CC(C)N1CCC(N(C)C(=O)c2ccc(Cn3cccn3)cc2)CC1 (as salt: hydrochloride) [Example 91] gave melting point of 213 to 215 °C

Lab note: Cc1nc2ccccc2n1-c1ccc(C(=O)N(C)[C@H]2CCN(C3CC[C@@H](C)C3)C2)cc1 (some centres unmarked) (as salt: hydrochloride) gave melting point of 175 to 177 °C

Lab note: CN(C(=O)c1ccc(Cn2ncc3ccccc32)cc1)C1CCN(C2CCCC2)CC1 (as salt: hydrochloride) [Example 81] gave melting point of 265 to 267 °C

Lab note: CN(C(=O)c1ccc(Cn2cccn2)cc1)C1CCN(C2CCCC2)CC1 (as salt: hydrochloride) [Example 93] gave melting point of 250 °C (dec.)

Lab note: Cc1nc2ccccc2n1Cc1ccc(C(=O)N(C)C2CCN(C3CCCC3)CC2)cc1 (as salt: hydrochloride) [Example 48] gave melting point of 280 °C (dec.)

Lab note: Cc1nc2ccccc2n1Cc1ccc(C(=O)N(C)[C@@H]2CCN(C(C)C)C2)c2ccccc12 (as salt: hydrochloride) [Example 143a] gave melting point of 192 to 194 °C

Lab note: CC(C)N1CCC(N(C)C(=O)c2ccc(Cn3ncc4ccccc43)cc2)CC1 (as salt: hydrochloride) [Example 79] gave melting point of 197 to 199 °C

Lab note: CN(C(=O)c1ccc(Cn2cnc3ccccc32)cc1)[C@@H]1CCNC1 (as salt: hydrochloride) [Example 36] gave melting point of 150 to 152 °C

Lab note: Cc1nc2ccccc2n1-c1ccc(C(=O)N(C)[C@@H]2CCN(C3C4CC5CC(C4)CC3C5)C2)cc1 (some centres unmarked) (as salt: hydrochloride) gave melting point of 257 to 259 °C

Lab note: Cc1nc2cc(C#N)ccc2n1-c1ccc(C(=O)N(C)[C@@H]2CCNC2)cc1 [Example 53] gave melting point of 178 to 180 °C

Lab note: Cc1nc2ccccc2n1-c1ccc(C(=O)N(C)[C@H]2CCN(C3CCCC(C)C3)C2)cc1 (some centres unmarked) (as salt: hydrochloride) gave melting point of 181 to 183 °C

Lab note: Cc1cc(C(=O)N(C)C2CCN(C(C)C)CC2)ccc1-n1c(C)nc2ccccc21 (as salt: hydrochloride) [Example 123] gave melting point of 250 °C (dec.)

###

The following compounds are shown together with reported pKi values.
Target: Human Histamine H3 Receptor (Homo sapiens)
Construct: membrane preparation)
Sequence (Q9Y5N1 whole entry): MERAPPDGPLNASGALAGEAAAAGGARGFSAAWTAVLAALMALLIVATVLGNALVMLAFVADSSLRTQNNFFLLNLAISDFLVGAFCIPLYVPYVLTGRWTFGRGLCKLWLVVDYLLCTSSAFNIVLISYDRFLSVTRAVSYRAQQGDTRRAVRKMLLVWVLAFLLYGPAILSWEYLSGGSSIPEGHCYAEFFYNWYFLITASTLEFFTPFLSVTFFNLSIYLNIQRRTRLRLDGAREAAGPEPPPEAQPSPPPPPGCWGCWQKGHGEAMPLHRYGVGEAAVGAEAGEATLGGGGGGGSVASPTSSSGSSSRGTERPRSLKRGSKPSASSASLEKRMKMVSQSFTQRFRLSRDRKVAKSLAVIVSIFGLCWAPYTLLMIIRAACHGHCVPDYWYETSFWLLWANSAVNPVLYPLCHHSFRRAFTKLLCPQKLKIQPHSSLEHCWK
Assay: Methyl histamine binding in Human Histamine H3 Receptor Cell Line
Settings: read-out: hH3 Binding Ki
pKi: −log10 of the molar value. Counter-ions that a name gives are not always drawn.

INSERT INTO results (compound, assay_readout, result) VALUES
  ('CN(C(=O)c1ccc(Cn2ncc3ccccc32)cc1)C1CCN(C2CCCC2)CC1', 'pKi', '< 7.00'),
  ('Cc1nc2ccccc2n1Cc1ccc(C(=O)N(C)C2CCN(C3CCC3)CC2)cc1', 'pKi', '< 7.00'),
  ('CN(C(=O)c1ccc(-n2ncc3ccccc32)cc1)C1CCN(C2CCC2)CC1', 'pKi', '< 7.00'),
  ('CN(C(=O)c1ccc(-n2cc3ccccc3n2)cc1)C1CCN(C2CCCC2)CC1', 'pKi', '< 7.00'),
  ('Cc1nc2ccccc2n1-c1ccc(C(=O)N(C)C2CCN(C(C)C)CC2)c(Cl)c1', 'pKi', '≥ 8.00');

Lab note: CN(C(=O)c1ccc(Cn2cnc3ccccc32)cc1)[C@@H]1CCNC1 [Example 36, Hydrochloride] gave pKi of < 7.00

Lab note: CCN(C(=O)c1ccc(-n2c(C)nc3ccccc32)cc1)[C@@H]1CCN(C2CCCCC2)C1 gave pKi of < 7.00

Lab note: CN(C(=O)c1ccc(-n2cc3ccccc3n2)cc1)[C@@H]1CCN(C2CCC2)C1 gave pKi of ≥ 8.00

###

Counter-ions that a name gives are not always drawn.
ASSAY_READOUT: melting point

INSERT INTO measurements (compound, result) VALUES
  ('CN(C(=O)c1ccc(-n2cc3ccccc3n2)cc1)C1CCN(C2CCC2)CC1 (as salt: hydrochloride)', '273 to 275 °C'),
  ('CN(C(=O)c1ccc(Cn2ncc3ccccc32)cc1)[C@@H]1CCN(C2CCCC2)C1 (as salt: hydrochloride)', '98 to 99 °C'),
  ('CN(C(=O)c1ccc(-n2cc3ccccc3n2)cc1)C1CCN(C2CCCC2)CC1 (as salt: hydrochloride)', '283 to 285 °C'),
  ('Cc1cc(C(=O)N(C)[C@@H]2CCN(C3CCC3)C2)ccc1-n1c(C)nc2ccccc21 (as salt: hydrochloride)', '164 to 166 °C'),
  ('Cc1nc2ccccc2n1Cc1ccc(C(=O)N(C)C2CCN(C(C)C)CC2)cc1 (as salt: hydrochloride)', '200 to 202 °C'),
  ('COc1cc(-n2c(C)nc3ccccc32)ccc1C(=O)N(C)C1CCN(C(C)C)CC1 (as salt: hydrochloride)', '215 to 217 °C'),
  ('Cc1nc2ccccc2n1-c1ccc(C(=O)N(C)[C@H]2CCN(C(C)C)C2)cc1 (as salt: hydrochloride)', '190 to 192 °C'),
  ('CN(C(=O)c1ccc(Cn2cnc3ccccc32)cc1)C1CCN(C2CCC2)CC1 (as salt: hydrochloride)', '238 to 240 °C');

Lab note: Cc1nc2ccccc2n1-c1ccc(C(=O)N(C)[C@@H]2CCN(C(C)C)C2)c(Cl)c1 (as salt: hydrochloride) gave melting point of 204 to 205 °C

Lab note: Cc1nc2ccccc2n1-c1ccc(C(=O)N(C)C2CCN(C(C)C)CC2)cc1 (as salt: hydrochloride) gave melting point of 282 to 284 °C

Lab note: Cc1nc2ccccc2n1-c1ccc(C(=O)N(C)[C@@H]2CCN(C3CCCC3)C2)cc1 (as salt: hydrochloride) gave melting point of 186 to 187 °C

Lab note: COc1cc(C(=O)N(C)[C@@H]2CCN(C(C)C)C2)ccc1-n1c(C)nc2ccccc21 (as salt: hydrochloride) gave melting point of 168 to 170 °C

Lab note: CCN(C(=O)c1ccc(-n2c(C)nc3ccccc32)cc1)[C@@H]1CCN(C2CCCCC2)C1 (as salt: hydrochloride) gave melting point of 177 to 179 °C

Lab note: Cc1nc2ccccc2n1-c1ccc(C(=O)N(C)C2CCNCC2)cc1 (as salt: hydrochloride) gave melting point of 219 to 221 °C

###

Counter-ions that a name gives are not always drawn.
ASSAY_READOUT: melting point

Previously resolved entries follow.
INSERT INTO assay_data (molecule, result) VALUES
  ('Cc1nc2ccccc2n1-c1ccc(C(=O)N(C)[C@@H]2CCN(C3CCC3)C2)cc1F (as salt: hydrochloride) [Example 104]', '164 to 166 °C'),
  ('CN(C(=O)c1ccc(Cn2cnc3ccccc32)cc1)C1CCN(C2CCCC2)CC1 (as salt: hydrochloride) [Example 51]', '248 to 250 °C'),
  ('Cc1nc2ccccc2n1-c1ccc(C(=O)N(C)[C@H]2CCN(C3CCCCC3C)C2)cc1 (stereo partly shown) (as salt: hydrochloride)', '195 to 196 °C');

Let us examine a further case.
Lab note: Cc1nc2ccccc2n1-c1ccc(C(=O)N(C)C2CCN(C3CCCCC3)CC2)cc1 (as salt: hydrochloride) [Example 33] gave melting point of 285 °C (dec.)
